Molecular target: fructofuranosidase of S. occidentalis (enzymatic concentrate F-1) (Schwanniomyces occidentalis)
Construct: the enzyme object of the invention is extracellularly released; endogenous in cells; host or cells: Schwanniomyces occidentalis (ATCC26077 named) grown in lactose medium; the cell-free supernatant was concentrated by 30 kDa tangential filtration and dialysed
Sequence (P24133 other isoform, or with tags, fused parts or gaps with the stated changes): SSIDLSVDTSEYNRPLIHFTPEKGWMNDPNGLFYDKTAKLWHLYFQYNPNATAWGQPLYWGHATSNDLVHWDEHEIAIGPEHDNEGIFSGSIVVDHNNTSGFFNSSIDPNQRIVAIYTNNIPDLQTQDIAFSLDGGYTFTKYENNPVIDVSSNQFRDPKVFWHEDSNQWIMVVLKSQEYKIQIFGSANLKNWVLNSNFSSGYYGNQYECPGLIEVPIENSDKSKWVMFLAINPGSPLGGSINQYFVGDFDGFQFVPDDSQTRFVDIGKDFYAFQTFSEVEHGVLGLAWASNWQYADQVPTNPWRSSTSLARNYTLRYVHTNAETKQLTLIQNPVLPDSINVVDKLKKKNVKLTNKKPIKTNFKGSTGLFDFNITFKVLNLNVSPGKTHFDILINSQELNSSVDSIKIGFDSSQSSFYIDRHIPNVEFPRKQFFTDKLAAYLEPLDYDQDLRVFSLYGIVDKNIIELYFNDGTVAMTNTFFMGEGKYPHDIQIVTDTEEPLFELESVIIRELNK
Experiment: Transfructosidase (transglycosylation) activity of enzymatic concentrate F-1 on sucrose, HPLC
Format: biochemical
Settings: maximum point of FOS production (4 h); F-1 5 U/ml, 50° C.
Each entry below carries its reported Composition of the system.
Provide only the numeric value, understood in %.

>>> endpoint_result("O=C(CO)[C@@H](O)[C@H](O)[C@H](O)CO [fructose]")
8.7
>>> endpoint_result("OC[C@H]1O[C@@](CO)(OC[C@H]2O[C@@](CO)(O[C@H]3O[C@H](CO)[C@@H](O)[C@H](O)[C@H]3O)[C@@H](O)[C@@H]2O)[C@@H](O)[C@@H]1O [6-kestose, β-D-Fru-(2→6)-β-D-Fru-(2→1)-α-D-Glu]")
6.6
>>> endpoint_result("OC[C@H]1O[C@@](CO)(O[C@H]2O[C@H](CO)[C@@H](O)[C@H](O)[C@H]2O)[C@@H](O)[C@@H]1O [sucrose, α-D-Glu-(1→2)-β-D-Fru]")
70.8

Now, please, on to the next compound.
Name the recorded Composition of the system for OC[C@H]1O[C@@](CO)(OC[C@@]2(O[C@H]3O[C@H](CO)[C@@H](O)[C@H](O)[C@H]3O)O[C@H](CO)[C@@H](O)[C@@H]2O)[C@@H](O)[C@@H]1O [1-kestose, β-D-Fru-(2→1)-β-D-Fru-(2→1)-α-D-Glu] .
2.0
